Overview of recorded PBM binding z-score for various sequences
Test system: RARa homodimer (NR concentration 270 nM)
method_notes: PBM binding z-score (relative to random genomic background probes); higher = stronger binding; sequences stand for … in GC…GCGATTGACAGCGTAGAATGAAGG
The response must contain the number and no unit.

Solved entries (count: 3):
Looking up "ACTAGCAGGCCAAGGGTCACTCATGATTAGTCCG" , I found its PBM binding z-score recorded as 0.642

Data point: "CCTACTGGGCCTAAAAGGTCATTGATGCCGATAA" ; PBM binding z-score = 1.56

PBM binding z-score reading for "CCTACTGGGCCACGAAAGGTCGTTGATTCAGTGA" : -0.764

Next:
Quick note, PBM binding z-score for "CCTACTGGGCCACGAAAGGTCATTGTTTCAGTGA" landed at 0.917

Where do these numbers come from? They come from the supplement of paper PMC6555819.
